- Target of assay: Protein cereblon/Replicase polyprotein 1ab (Severe acute respiratory syndrome coronavirus 2, UniProt P0DTD1+Q96SW2)
- Sequence (Q96SW2 whole entry, other chains not shown): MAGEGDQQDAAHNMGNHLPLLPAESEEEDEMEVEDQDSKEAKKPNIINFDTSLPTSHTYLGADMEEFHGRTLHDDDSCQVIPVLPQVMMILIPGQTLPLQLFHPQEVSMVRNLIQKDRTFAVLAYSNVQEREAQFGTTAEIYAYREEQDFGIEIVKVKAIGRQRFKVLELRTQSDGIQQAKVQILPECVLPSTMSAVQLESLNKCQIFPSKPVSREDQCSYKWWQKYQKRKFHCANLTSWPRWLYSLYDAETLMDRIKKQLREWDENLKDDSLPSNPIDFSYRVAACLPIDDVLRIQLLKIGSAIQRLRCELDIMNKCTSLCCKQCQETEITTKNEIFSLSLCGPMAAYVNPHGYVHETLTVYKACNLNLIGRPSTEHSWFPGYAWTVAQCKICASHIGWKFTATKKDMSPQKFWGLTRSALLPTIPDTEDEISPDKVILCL
- Experiment summary: PROTAC activity at SARS-CoV-2 Main protease/CRBN E3 ligase (unknown origin)
Overview of recorded EC50 for various compounds

Past entries and their recorded results:
INSERT INTO results (compound, reported_endpoint, endpoint_result) VALUES
  ('Cn1cc2cc(/N=c3\[nH]c(=O)n(Cc4cn(CCC(=O)Nc5cccc6c5C(=O)N(C5CCC(=O)NC5=O)C6=O)nn4)c(=O)n3Cc3cc(F)c(F)cc3F)c(Cl)cc2n1 (stereo not given)', 'EC50', '> 100 nM'),
  ('Cn1cc2cc(/N=c3\[nH]c(=O)n(Cc4cn(CCCCCCCC(=O)Nc5cccc6c5C(=O)N(C5CCC(=O)NC5=O)C6)nn4)c(=O)n3Cc3cc(F)c(F)cc3F)c(Cl)cc2n1 (stereo not given)', 'EC50', '> 100 nM'),
  ('Cn1cc2cc(/N=c3\[nH]c(=O)n(Cc4cn(CCOCC(=O)Nc5cccc6c5C(=O)N(C5CCC(=O)NC5=O)C6=O)nn4)c(=O)n3Cc3cc(F)c(F)cc3F)c(Cl)cc2n1 (stereo not given)', 'EC50', '< 100 nM'),
  ('Cn1cc2cc(/N=c3\[nH]c(=O)n(Cc4cn(CCOCC(=O)Nc5cccc6c5C(=O)N(C5CCC(=O)NC5=O)C6)nn4)c(=O)n3Cc3cc(F)c(F)cc3F)c(Cl)cc2n1 (stereo not given)', 'EC50', '< 100 nM');

Would you kindly look at the next entry?
Request: Please supply the value of reported EC50 for the item Cn1cc2cc(/N=c3\[nH]c(=O)n(Cc4cn(CCCCC(=O)Nc5cccc6c5C(=O)N(C5CCC(=O)NC5=O)C6)nn4)c(=O)n3Cc3cc(F)c(F)cc3F)c(Cl)cc2n1 (stereo not given)
Result: < 100 nM

* * *

- Experiment summary: AUC (0 to last) in cynomolgus monkey at 5 mg/kg, po
- Assay type: ADME, organism-based, Macaca fascicularis
- Condition details: in vivo
Reported endpoint: AUC(0-t) (nM·h)
Number only, in nM·h; omit the unit.

Request: Consider the compound `O=C(NC1CCCC1)C(=O)[C@H](C[C@@H]1CCNC1=O)NC(=O)[C@@H]1[C@H]2CCC[C@H]2CN1C(=O)[C@@H](NC(=O)C(F)(F)F)C1CCCCC1` . State its measured AUC(0-t).
Result: 458

* * *

- Target of assay: Replicase polyprotein 1ab (Severe acute respiratory syndrome coronavirus 2, UniProt P0DTD1)
- Experiment summary: Inhibition of SARS-CoV-2 recombinant main protease
- Type: single protein
Reported endpoint: log10(IC50) (log10 of the value in nM)
// do not treat as linear: log10 of IC50, unit nM

A selection of reference data follows.
INSERT INTO measurements (smiles_record, endpoint_result) VALUES
  ('O=c1[nH]cc(-c2cc(-c3cc(Cl)cc(COc4ccccc4)c3)c(=O)n(-c3cccnc3)c2)c(=O)[nH]1', 2.11),
  ('O=c1[nH]cc(-c2cc(-c3cc(Cl)cc(COc4cccc(F)c4)c3)c(=O)n(-c3cccnc3)c2)c(=O)[nH]1', 1.57),
  ('O=c1[nH]cc(-c2cc(-c3cc(Cl)cc(COc4ccccc4F)c3)c(=O)n(-c3cccnc3)c2)c(=O)[nH]1', 1.38),
  ('O=c1[nH]cc(-c2cc(-c3cc(Cl)cc(OCCc4ccccc4)c3)c(=O)n(-c3cccnc3)c2)c(=O)[nH]1', 1.57),
  ('COc1cc(Cl)cc(-c2cc(-c3c[nH]c(=O)[nH]c3=O)cn(-c3cccnc3)c2=O)c1', 3.00);

Request: Give the value of log10(IC50) reported for the following: `Cc1cccc(OCc2cc(Cl)cc(-c3cc(-c4c[nH]c(=O)[nH]c4=O)cn(-c4cccnc4)c3=O)c2)c1`
Result: 2.04

Request: Input `CC(C)COc1cc(Cl)cc(-c2cc(-c3c[nH]c(=O)[nH]c3=O)cn(-c3cccnc3)c2=O)c1` , output reported log10(IC50).
Result: 2.28

Request: For the compound `Cc1ccccc1OCc1cc(Cl)cc(-c2cc(-c3c[nH]c(=O)[nH]c3=O)cn(-c3cccnc3)c2=O)c1` , give its measured log10(IC50) value.
Result: 2.00

Request: Input `COCCCc1cc(Cl)cc(-c2cc(-c3c[nH]c(=O)[nH]c3=O)cn(-c3cccnc3)c2=O)c1` , output reported log10(IC50).
Result: 1.40

Request: Write down log10(IC50) measured for item `O=c1[nH]cc(-c2cc(-c3cc(Cl)cc(COc4c(F)cccc4F)c3)c(=O)n(-c3cccnc3)c2)c(=O)[nH]1`
Result: 1.56

Request: Specify reported log10(IC50) for the compound shown: `N#Cc1ccccc1-c1cc(-c2cccc(Cl)c2)cn(-c2cccnc2)c1=O`
Result: 4.00

Request: Provide log10(IC50) value for the following compound: `O=c1[nH]cc(-c2cc(-c3cc(Cl)cc(COc4ccccc4Cl)c3)c(=O)n(-c3cccnc3)c2)c(=O)[nH]1`
Result: 1.26

* * *

- Target of assay: Replicase polyprotein 1ab (Severe acute respiratory syndrome coronavirus 2, UniProt P0DTD1)
- Experiment summary: Inhibition of SARS-CoV-2 recombinant 3CLpro using fluorogenic substrate (Dabcyl-KTSAVLQ]SGFRK M-E
Reported endpoint: pIC50
pIC50 (log units): -log10 of the concentration in mol/L.

Check out these entries, answers already filled in.
INSERT INTO measurements (molecule, reported_endpoint, endpoint_result) VALUES
  ('CNC(=O)c1cc(Br)cc([N+](=O)[O-])c1N[C@@H]1CCC[C@H](NC(=O)c2cncc3cccc(O)c23)C1', 'pIC50', 4.20),
  ('CNC(=O)c1cc(Br)cc([N+](=O)[O-])c1N[C@H]1CCCC[C@H]1NC(=O)c1cncc2cc(O)ccc12', 'pIC50', 3.92),
  ('CNC(=O)[C@@H](Cc1cccc(F)c1)NC(=O)C1CN(C(=O)c2cncc3cccc(O)c23)CCN1Cc1ccc(Cl)cc1Cl (some centres undefined)', 'pIC50', 3.78);

Continue with the molecule presented below.
Request: Look up and report measured pIC50 for this entry: `CNC(=O)c1cc(C)cc([N+](=O)[O-])c1N1CC[C@]2(CCN(C(=O)c3cncc4cc(O)ccc34)C2)C1`
Result: 4.31

* * *

- Tested on: SARS-CoV-2
- Experiment summary: Antiviral activity against SARS-CoV-2 infected in African green monkey Vero E6 cells assessed as inhibition of viral replication incubated by plaque reduction assay
- Type: functional, organism-based
- Condition details: Severe acute respiratory syndrome coronavirus 2, Vero C1008
Reported endpoint: EC50 (nM)
Give the quantity in nM, number only.

Request: Give reported EC50 value for `O=C1NCC[C@H]1C[C@H](NC(=O)[C@@H]1[C@H]2CCC[C@H]2CN1C(=O)COc1ccc(Cl)cc1Cl)C(=O)CF`
Result: 240

* * *

IC50 values by entry
- Target of assay: Replicase polyprotein 1ab (Severe acute respiratory syndrome coronavirus 2)
- Experiment summary: Inhibition of SARS-CoV-2 3CLp by mass spectrometry
Record the value in nM, omitting the unit from your answer.

INSERT INTO assay_data (smiles_record, target_of_assay, reported_endpoint, endpoint_result) VALUES
  ('Cn1cnc(Cn2c(=O)cc(Nc3cc4cn(C)nc4cc3C(F)(F)F)n(Cc3cc(Cl)c(Cl)cc3F)c2=O)n1', 'Replicase polyprotein 1ab (Severe acute respiratory syndrome coronavirus 2)', 'IC50', 14),
  ('Cc1cncc(-n2c(=O)nc(Nc3cc4cn(C)nc4cc3Cl)n(Cc3cc(C#N)c(F)cc3C)c2=O)c1', 'Replicase polyprotein 1ab (Severe acute respiratory syndrome coronavirus 2)', 'IC50', 35),
  ('Cn1cnc(Cn2c(=O)cc(Nc3cc4cn(C)nc4cc3Cl)n(Cc3cc(F)c(F)cc3F)c2=O)n1', 'Replicase polyprotein 1ab (Severe acute respiratory syndrome coronavirus 2)', 'IC50', 10),
  ('Cn1cnc(Cn2c(=O)cc(Nc3cc4cn(C)nc4cc3F)n(Cc3cc(Cl)c(F)cc3F)c2=O)n1', 'Replicase polyprotein 1ab (Severe acute respiratory syndrome coronavirus 2)', 'IC50', 18),
  ('Cc1cc(Cn2c(Nc3cc4cn(C)nc4cc3Cl)cc(=O)n(Cc3ncn(C)n3)c2=O)c(F)cc1F', 'Replicase polyprotein 1ab (Severe acute respiratory syndrome coronavirus 2)', 'IC50', 12),
  ('CCn1cc2cc(Nc3nc(=O)n(-c4cncc(Cl)c4)c(=O)n3Cc3cc(C#N)ccc3C)ccc2n1', 'Replicase polyprotein 1ab (Severe acute respiratory syndrome coronavirus 2)', 'IC50', 234);

Now consider the entry below.
Request: Please give measured IC50 of the following entry: `Cn1cnc(Cn2c(=O)cc(Nc3cc4cn(C)nc4cc3OC(F)(F)F)n(Cc3cc(F)c(F)cc3F)c2=O)n1`
Result: 10
